- System: Vero E6 infected with SARS-CoV-2
- MEASUREMENT_DESCRIPTION: inhibition of SARS-CoV-2 cytopathic effect; higher = more antiviral protection, active = above 15
- CONDITION_LABEL: 1 nM; 48 h
Reported values of inhibition of SARS-CoV-2 cytopathic effect for individual entries
METRIC: inhibition of SARS-CoV-2 cytopathic effect (%)

1) CCc1ccc(Cc2ccc3c(c2)[C@]2(OC3)O[C@H](CO)[C@@H](O)[C@H](O)[C@H]2O)cc1	-0.25
2) COc1ccc(CCc2nc3cc(-c4c(C)noc4C)ccc3n2C[C@H](C)N2CCOCC2)cc1Cl	0.67
3) COc1cc2c(cc1OC)-c1cc3nc4ccccc4nc3n1C(C)(C)C2	2.63
4) CCC(CC)COC(=O)[C@H](C)N[P@](=O)(OC[C@H]1O[C@@](C#N)(c2ccc3c(N)ncnn23)[C@H](O)[C@@H]1O)Oc1ccccc1	-0.54
5) Cc1ccc(S(=O)(=O)/C=C/C#N)cc1	0.18
6) C[C@@H]1COCCN1c1cc(=O)n2c(n1)N(Cc1cncc(Cl)c1)[C@H](C(F)(F)F)CC2	-2.96
7) COC[C@@H](c1ccc(C(F)(F)F)cc1)N1CCN(C2(C)CCN(C(=O)c3c(C)ncnc3C)CC2)C[C@@H]1C	-0.96
8) C/C(=N\NC(=N)N)c1cc(NC(=O)CCCCCCCCC(=O)Nc2cc(/C(C)=N/NC(=N)N)cc(/C(C)=N/NC(=N)N)c2)cc(/C(C)=N/NC(=N)N)c1	1.18
9) CCCCN1CCCC1CNC(=O)c1cc(C#N)c2ccccc2c1OC (stereo unspecified) [nafadotride]	-1.44
10) CC1=CC(=C(c2ccc(N)cc2)c2ccc(N)cc2)C=CC1=N	0.76
11) c1cc2c(c(N3CCNCC3)c1)OCCO2	3.51
12) CC[C@H](C)[C@@H]([C@@H](CC(=O)N1CCC[C@H]1[C@H](OC)[C@@H](C)C(=O)N[C@@H](Cc1ccccc1)c1nccs1)OC)N(C)C(=O)[C@@H](NC(=O)[C@H](C(C)C)N(C)C)C(C)C	-1.47
13) CC(C)C[C@H](NC(=O)[C@H](Cc1ccccc1)NC(=O)c1cnccn1)B(O)O	1.7
14) CC[C@@H]1C(=O)OC[C@@H]1Cc1cncn1C	0.9
15) Clc1cccc(Cl)c1CSc1nnc(-c2cnccn2)s1	1.9
16) COc1ncc(-c2ccc3c(Nc4cc(Oc5cc(F)cc(F)c5)cc(C(=O)O)c4)c(S(=O)(=O)NC4CC4)cnc3c2)c(OC)n1	0.82
